# System: MDA-MB-436
# CONDITION SUMMARY: 72 h
Entries whose EC50, CellTiter-Glo is below 1000 nM take True; entries at or above 1000 nM take False.

Some entries whose results are on file:
CCNC(=O)c1noc(-c2cc(C(C)C)c(O)cc2O)c1-c1ccc(CN2CCOCC2)cc1
True
CO[C@@H]1[C@H](N(C)C(=O)c2ccccc2)C[C@H]2O[C@]1(C)n1c3ccccc3c3c4c(c5c6ccccc6n2c5c31)C(=O)NC4
True
CCN(CC)CCCC(C)Nc1ccnc2cc(Cl)ccc12 (stereo not given)
False

Ask: Record CN(Cc1cnc2nc(N)nc(N)c2n1)c1ccc(C(=O)N[C@@H](CCC(=O)O)C(=O)O)cc1 [Methotrexate] : is its EC50, CellTiter-Glo strictly below 1000 nM?
Result: False

Ask: For this molecule, is EC50, CellTiter-Glo lower than 1000 nM? `CNC(=O)c1ccccc1Sc1ccc2c(/C=C/c3ccccn3)n[nH]c2c1`
Result: False

###

Some compounds, each annotated with its measured normalised response.
# Tested on: CAL-120
# EXPERIMENT: normalised response (% of control), CellTox Green; higher = less cell death (100 = DMSO, 0 = benzethonium chloride kill control)
# CONDITION SUMMARY: incubation time: 72 h
Dear colleague, please return just the value in %, with no unit written.

Examples with answers:
CC[C@H](CO)Nc1nc(NCc2ccccc2)c2ncn(C(C)C)c2n1 [Seliciclib] (100 nM)
98.4
CC(C)(C)NC(=O)[C@H]1CC[C@H]2[C@@H]3CC[C@H]4NC(=O)C=C[C@]4(C)[C@H]3CC[C@]12C [Finasteride] (100 nM)
100
O=C(O)CNC(=O)c1c(O)c2ccccc2n(Cc2ccccc2)c1=O [IOX-2] (5000 nM)
98.4
CCNC(=O)CCC/C=C\C[C@@H]1[C@@H](/C=C/[C@@H](O)CCc2ccccc2)[C@H](O)C[C@@H]1O [Bimatoprost] (5500 nM)
98.4
C=CCN(/C=C1/C(=O)O[C@H](COC)[C@@]2(C)C1=C(O)C(=O)C1=C2[C@H](OC(C)=O)C[C@]2(C)C(=O)CC[C@@H]12)CC=C [Sonolisib] (1000 nM)
102
Cc1cc(Nc2nc(N[C@@H](C)c3ncc(F)cn3)ncc2Cl)[nH]n1 [AZD1480] (1000 nM)
87.1
O=C(O)CNC(=O)c1c(O)c2ccccc2n(Cc2ccccc2)c1=O [IOX-2] (500 nM)
97.7

Ask: Field request: normalised response | item: CN(C)C(=N)NC(=N)N [Metformin] (100000 nM)
Result: 94.6

###

Below: a set of entries, each annotated with reported normalised response.
# Test system: MDA-MB-436
# EXPERIMENT: normalised response (% of control), CellTox Green; higher = less cell death (100 = DMSO, 0 = benzethonium chloride kill control)
# CONDITION SUMMARY: incubation time: 72 h
Give your result in % as a bare value.

Reference set (5 entries):
Cn1cc(C2=C(c3cn(C4CCN(Cc5ccccn5)CC4)c4ccccc34)C(=O)NC2=O)c2ccccc21 [Enzastaurin] (100 nM)
86
CC(C)n1cnc2c(NCCc3ccc(O)cc3)nc(-c3csc4ccccc34)nc21 [StemRegenin 1] (10000 nM)
103
Cc1cc(Nc2nc(N[C@@H](C)c3ncc(F)cn3)ncc2Cl)[nH]n1 [AZD1480] (10 nM)
73.2
CN(Cc1cnc2nc(N)nc(N)c2n1)c1ccc(C(=O)N[C@@H](CCC(=O)O)C(=O)O)cc1 [Methotrexate] (5000 nM)
97.6
CN(Cc1cnc2nc(N)nc(N)c2n1)c1ccc(C(=O)N[C@@H](CCC(=O)O)C(=O)O)cc1 [Methotrexate] (500 nM)
105

Ask: So what normalised response did CC(O)(CS(=O)(=O)c1ccc(F)cc1)C(=O)Nc1ccc(C#N)c(C(F)(F)F)c1 (configuration not stated) [Bicalutamide] (10000 nM) get with MDA-MB-436?
Result: 78.1

Ask: Lab request: please report normalised response under test system MDA-MB-436 for Nc1ccn([C@@H]2O[C@H](CO)[C@@H](O)C2(F)F)c(=O)n1 [Gemcitabine] (10 nM)
Result: 97.1

###

# Test system: CAL-148
# CONDITION SUMMARY: 72 h
TEST READOUT: EC50, CellTiter-Blue viability (nM)
Value expressed in nM; do not type the unit.

Examples from the recorded data:
CC(=O)[C@]1(O)Cc2c(O)c3c(c(O)c2[C@@H](O[C@H]2C[C@H](N)[C@H](O)[C@H](C)O2)C1)C(=O)c1ccccc1C3=O [Idarubicin]
18.7
C/C(=C\c1csc(C)n1)[C@@H]1C[C@@H]2O[C@]2(C)CCC[C@H](C)[C@H](O)[C@@H](C)C(=O)C(C)(C)[C@@H](O)CC(=O)N1 [Ixabepilone]
601
COc1ccc(S(=O)(=O)Nc2cccnc2Nc2ccc(O)cc2)cc1 [ABT-751]
949
CC1(C)CCC(c2ccc(Cl)cc2)=C(CN2CCN(c3ccc(C(=O)NS(=O)(=O)c4ccc(N[C@H](CCN5CCOCC5)CSc5ccccc5)c(S(=O)(=O)C(F)(F)F)c4)cc3)CC2)C1 [Navitoclax]
129
CO[C@@]12[C@H](COC(N)=O)C3=C(C(=O)C(C)=C(N)C3=O)N1C[C@@H]1N[C@@H]12 [Mitomycin C]
2940

Now for another entry.
Ask: // query EC50, CellTiter-Blue viability value for entry Cn1cc(C2=C(c3cn(C4CCN(Cc5ccccn5)CC4)c4ccccc34)C(=O)NC2=O)c2ccccc21 [Enzastaurin]
Result: 24

###

Documented normalised response across a set of compounds
# Tested on: MDA-MB-468
# EXPERIMENT: normalised response (% of control), CellTox Green; higher = less cell death (100 = DMSO, 0 = benzethonium chloride kill control)
# CONDITION SUMMARY: incubation time: 72 h
Dear colleague, please return just the value in %, with no unit written.

Before answering, review these 6 worked examples.
COc1ccc(S(=O)(=O)Nc2cccnc2Nc2ccc(O)cc2)cc1 [ABT-751] (10000 nM)
112
CC(C)(C)NC(=O)[C@H]1CC[C@H]2[C@@H]3CC[C@H]4NC(=O)C=C[C@]4(C)[C@H]3CC[C@]12C [Finasteride] (1000 nM)
145
Cn1cc(C2=C(c3cn(C4CCN(Cc5ccccn5)CC4)c4ccccc34)C(=O)NC2=O)c2ccccc21 [Enzastaurin] (100 nM)
56.9
Cc1cn(-c2cc(NC(=O)c3ccc(C)c(Nc4nccc(-c5cccnc5)n4)c3)cc(C(F)(F)F)c2)cn1 [Nilotinib] (100 nM)
123
CN(C)C(=N)NC(=N)N [Metformin] (1000 nM)
61
CC(C)n1cnc2c(NCCc3ccc(O)cc3)nc(-c3csc4ccccc34)nc21 [StemRegenin 1] (10000 nM)
130

Proceeding to the next compound to report its normalised response.
Ask: Please give the measured normalised response for this compound: CC(C)C[C@H](NC(=O)[C@@H](COC(C)(C)C)NC(=O)[C@H](Cc1ccc(O)cc1)NC(=O)[C@H](CO)NC(=O)[C@H](Cc1c[nH]c2ccccc12)NC(=O)[C@H](Cc1cnc[nH]1)NC(=O)[C@@H]1CCC(=O)N1)C(=O)N[C@@H](CCCNC(=N)N)C(=O)N1CCC[C@H]1C(=O)NNC(N)=O [Goserelin] (1000 nM)
Result: 158

###

# Tested on: Hs578T
# EXPERIMENT: normalised viability (% of control), CellTiter-Blue; higher = more viable cells (100 = DMSO, 0 = benzethonium chloride kill control)
# CONDITION SUMMARY: incubation time: 72 h
TEST READOUT: normalised viability (%)
All answers are understood in %, so give the number only.

Example compounds with recorded normalised viability:
CCNC(=O)CCC/C=C\C[C@@H]1[C@@H](/C=C/[C@@H](O)CCc2ccccc2)[C@H](O)C[C@@H]1O [Bimatoprost] (0.55 nM)
113
CCNC(=O)c1noc(-c2cc(C(C)C)c(O)cc2O)c1-c1ccc(CN2CCOCC2)cc1 [NVP-AUY922] (0.1 nM)
150
CC[C@H](CO)Nc1nc(NCc2ccccc2)c2ncn(C(C)C)c2n1 [Roscovitine] (1 nM)
96.3

Ask: Returns the measured normalised viability for the input compound. Input: COc1cc(Nc2c(C#N)cnc3cc(OCCCN4CCN(C)CC4)c(OC)cc23)c(Cl)cc1Cl [Bosutinib] (1 nM)
Result: 110

Ask: Could you tell me which normalised viability is on file for CO[C@@]12[C@H](COC(N)=O)C3=C(C(=O)C(C)=C(N)C3=O)N1C[C@@H]1N[C@@H]12 [Mitomycin C] (1 nM) ?
Result: 134

Ask: Given the compound Cc1cc(Nc2nc(N[C@@H](C)c3ncc(F)cn3)ncc2Cl)[nH]n1 [AZD1480] (0.1 nM) , what is its reported normalised viability?
Result: 116
